# procedureSummary: Measurement of absorption spectrum and fluorescence excitation spectrum
# Type: physicochemical
fluorescence detected at values by entry

Check out these entries, answers already filled in.
{"compound": "CCN(Cc1cccc(S(=O)(=O)O)c1)c1ccc(C(=C2C=CC(=[N+](CC)Cc3cccc(S(=O)(=O)O)c3)C=C2)c2ccccc2S(=O)(=O)[O-])cc1.N.N [Alphazurine FG]", "measurementType": "fluorescence detected at", "result": "643 nm"}
{"compound": "CCN(Cc1cccc(S(=O)(=O)[O-])c1)c1ccc(C(=C2C=CC(=[N+](CC)Cc3cccc(S(=O)(=O)[O-])c3)C=C2)c2ccc(O)cc2S(=O)(=O)[O-])cc1.[Na+].[Na+] [Fast Green FCF]", "measurementType": "fluorescence detected at", "result": "652 nm"}
{"compound": "CCN(Cc1cccc(S(=O)(=O)O)c1)c1ccc(C(=C2C=CC(=[N+](CC)Cc3cccc(S(=O)(=O)O)c3)C=C2)c2ccc(S(=O)(=O)O)cc2)cc1.[Na+].[Na+] [Light Green SF]", "measurementType": "fluorescence detected at", "result": "652 nm"}
{"compound": "CCN(Cc1cccc(S(=O)(=O)[O-])c1)c1ccc(C(=C2C=CC(=[N+](CC)Cc3cccc(S(=O)(=O)[O-])c3)C=C2)c2ccccc2)cc1.[Na+] [Guinea Green B]", "measurementType": "fluorescence detected at", "result": "635 nm"}

Let us examine a further case.
Q. Give the value of fluorescence detected at reported for the following: CCN(Cc1cccc(S(=O)(=O)[O-])c1)c1ccc(C(=C2C=CC(=[N+](CC)Cc3cccc(S(=O)(=O)[O-])c3)C=C2)c2ccccc2S(=O)(=O)[O-])cc1.[Na+].[Na+] [Brilliant Blue FCF]
A. 650 nm

----------
# procedureSummary: Measurement of absorption spectrum and fluorescence excitation spectrum
# Type: physicochemical
# Experimental: Measurement of an absorption spectrum and a fluorescence excitation spectrum of Fast Green FCF was performed. The Fast Green FCF (Wako Pure Chemical Industries, Ltd.) was adjusted to 1.0 mg/ml, and the light absorbance was continuously measured at a wavelength of from 200 to 750 nm using a spectrophotometer (manufactured by Shimadzu Corp., BioSpec-1600) to determine the wavelength at which the absorbance reached the maximum. […]
can be excited at, for example values by entry
The reply should contain only the number, in nm.

Check out these entries, answers already filled in.
{"cpdSmiles": "CCN(Cc1cccc(S(=O)(=O)[O-])c1)c1ccc(C(=C2C=CC(=[N+](CC)Cc3cccc(S(=O)(=O)[O-])c3)C=C2)c2ccccc2)cc1.[Na+]", "measurementType": "can be excited at, for example", "result": 624}
{"cpdSmiles": "CCN(Cc1cccc(S(=O)(=O)[O-])c1)c1ccc(C(=C2C=CC(=[N+](CC)Cc3cccc(S(=O)(=O)[O-])c3)C=C2)c2ccc(O)cc2S(=O)(=O)[O-])cc1.[Na+].[Na+]", "measurementType": "can be excited at, for example", "result": 628}
{"cpdSmiles": "CCN(Cc1cccc(S(=O)(=O)[O-])c1)c1ccc(C(=C2C=CC(=[N+](CC)Cc3cccc(S(=O)(=O)[O-])c3)C=C2)c2ccccc2S(=O)(=O)[O-])cc1.[Na+].[Na+]", "measurementType": "can be excited at, for example", "result": 629}
{"cpdSmiles": "CCN(Cc1cccc(S(=O)(=O)O)c1)c1ccc(C(=C2C=CC(=[N+](CC)Cc3cccc(S(=O)(=O)O)c3)C=C2)c2ccccc2S(=O)(=O)[O-])cc1.N.N", "measurementType": "can be excited at, for example", "result": 633}

Let us examine a further case.
Q. Give the value of can be excited at, for example reported for the following: "CCN(Cc1cccc(S(=O)(=O)O)c1)c1ccc(C(=C2C=CC(=[N+](CC)Cc3cccc(S(=O)(=O)O)c3)C=C2)c2ccc(S(=O)(=O)O)cc2)cc1.[Na+].[Na+]"
A. 633

----------
maximum excitation wavelength values by entry
# procedureSummary: Measurement of absorption spectrum and fluorescence excitation spectrum
# Type: physicochemical
# protocolConditions: fluorescence spectrophotometer
The reply should contain only the number, in nm.

Check out these entries, answers already filled in.
{"cpdSmiles": "CCN(Cc1cccc(S(=O)(=O)O)c1)c1ccc(C(=C2C=CC(=[N+](CC)Cc3cccc(S(=O)(=O)O)c3)C=C2)c2ccc(S(=O)(=O)O)cc2)cc1.[Na+].[Na+]", "measurementType": "maximum excitation wavelength", "result": 633}
{"cpdSmiles": "CCN(Cc1cccc(S(=O)(=O)[O-])c1)c1ccc(C(=C2C=CC(=[N+](CC)Cc3cccc(S(=O)(=O)[O-])c3)C=C2)c2ccccc2S(=O)(=O)[O-])cc1.[Na+].[Na+]", "measurementType": "maximum excitation wavelength", "result": 619}
{"cpdSmiles": "CCN(Cc1cccc(S(=O)(=O)O)c1)c1ccc(C(=C2C=CC(=[N+](CC)Cc3cccc(S(=O)(=O)O)c3)C=C2)c2ccccc2S(=O)(=O)[O-])cc1.N.N", "measurementType": "maximum excitation wavelength", "result": 633}

Q. Give the value of maximum excitation wavelength reported for the following: "CCN(Cc1cccc(S(=O)(=O)[O-])c1)c1ccc(C(=C2C=CC(=[N+](CC)Cc3cccc(S(=O)(=O)[O-])c3)C=C2)c2ccc(O)cc2S(=O)(=O)[O-])cc1.[Na+].[Na+]"
A. 628

Q. Give the value of maximum excitation wavelength reported for the following: "CCN(Cc1cccc(S(=O)(=O)[O-])c1)c1ccc(C(=C2C=CC(=[N+](CC)Cc3cccc(S(=O)(=O)[O-])c3)C=C2)c2ccccc2)cc1.[Na+]"
A. 624

----------
# procedureSummary: Measurement of absorption spectrum and fluorescence excitation spectrum
# Format: physicochemical
# protocolConditions: fluorescence spectrophotometer
# Method: Measurement of an absorption spectrum and a fluorescence excitation spectrum of Fast Green FCF was performed. The Fast Green FCF (Wako Pure Chemical Industries, Ltd.) was adjusted to 1.0 mg/ml, and the light absorbance was continuously measured at a wavelength of from 200 to 750 nm using a spectrophotometer (manufactured by Shimadzu Corp., BioSpec-1600) to determine the wavelength at which the absorbance reached the maximum. […]
measurementType: maximum fluorescence wavelength (nm)
The reply should contain only the number, in nm.

{"cpdSmiles": "CCN(Cc1cccc(S(=O)(=O)O)c1)c1ccc(C(=C2C=CC(=[N+](CC)Cc3cccc(S(=O)(=O)O)c3)C=C2)c2ccccc2S(=O)(=O)[O-])cc1.N.N", "readingUnit": "nm", "maximum fluorescence wavelength": 643}
{"cpdSmiles": "CCN(Cc1cccc(S(=O)(=O)[O-])c1)c1ccc(C(=C2C=CC(=[N+](CC)Cc3cccc(S(=O)(=O)[O-])c3)C=C2)c2ccc(O)cc2S(=O)(=O)[O-])cc1.[Na+].[Na+]", "readingUnit": "nm", "maximum fluorescence wavelength": 652}
{"cpdSmiles": "CCN(Cc1cccc(S(=O)(=O)O)c1)c1ccc(C(=C2C=CC(=[N+](CC)Cc3cccc(S(=O)(=O)O)c3)C=C2)c2ccc(S(=O)(=O)O)cc2)cc1.[Na+].[Na+]", "readingUnit": "nm", "maximum fluorescence wavelength": 652}
{"cpdSmiles": "CCN(Cc1cccc(S(=O)(=O)[O-])c1)c1ccc(C(=C2C=CC(=[N+](CC)Cc3cccc(S(=O)(=O)[O-])c3)C=C2)c2ccccc2S(=O)(=O)[O-])cc1.[Na+].[Na+]", "readingUnit": "nm", "maximum fluorescence wavelength": 650}

Let us examine a further case.
Q. Give the value of maximum fluorescence wavelength reported for the following: "CCN(Cc1cccc(S(=O)(=O)[O-])c1)c1ccc(C(=C2C=CC(=[N+](CC)Cc3cccc(S(=O)(=O)[O-])c3)C=C2)c2ccccc2)cc1.[Na+]"
A. 635

----------
# procedureSummary: Measurement of absorption spectrum and fluorescence excitation spectrum
# Format: physicochemical
# protocolConditions: 1.0 mg/ml, spectrophotometer 200 to 750 nm
measurementType: maximum absorption wavelength (nm)
The reply should contain only the number, in nm.

Check out these entries, answers already filled in.
{"cpdSmiles": "CCN(Cc1cccc(S(=O)(=O)[O-])c1)c1ccc(C(=C2C=CC(=[N+](CC)Cc3cccc(S(=O)(=O)[O-])c3)C=C2)c2ccccc2)cc1.[Na+]", "result": 620}
{"cpdSmiles": "CCN(Cc1cccc(S(=O)(=O)[O-])c1)c1ccc(C(=C2C=CC(=[N+](CC)Cc3cccc(S(=O)(=O)[O-])c3)C=C2)c2ccccc2S(=O)(=O)[O-])cc1.[Na+].[Na+]", "result": 629}
{"cpdSmiles": "CCN(Cc1cccc(S(=O)(=O)O)c1)c1ccc(C(=C2C=CC(=[N+](CC)Cc3cccc(S(=O)(=O)O)c3)C=C2)c2ccccc2S(=O)(=O)[O-])cc1.N.N", "result": 630}
{"cpdSmiles": "CCN(Cc1cccc(S(=O)(=O)O)c1)c1ccc(C(=C2C=CC(=[N+](CC)Cc3cccc(S(=O)(=O)O)c3)C=C2)c2ccc(S(=O)(=O)O)cc2)cc1.[Na+].[Na+]", "result": 635}

Let us examine a further case.
Q. Give the value of maximum absorption wavelength reported for the following: "CCN(Cc1cccc(S(=O)(=O)[O-])c1)c1ccc(C(=C2C=CC(=[N+](CC)Cc3cccc(S(=O)(=O)[O-])c3)C=C2)c2ccc(O)cc2S(=O)(=O)[O-])cc1.[Na+].[Na+]"
A. 628
